Measured T/C, listed per entry.
System: BDF1 mice, P388 leukemia ip, median survival T/C
EXPERIMENTAL PROTOCOL: NCI In Vivo Anticancer Drug Screen. Data for tumor model P388 Leukemia (intraperitoneal) in B6D2F1 (BDF1) mice
SETUP CONDITIONS: endpoint: median survival time; dose: 200.0 mg/kg/injection; schedule: Q01DX001 (ip); vehicle: saline sonified; higher = longer survival
Inconclusive results and toxic doses are left out.
ASSAY READOUT: T/C

> print(dat)
                                smiles.text  assay.readout    recorded.value
1                NC(=S)NNC(=O)/C=C/c1ccccc1            T/C  100 % of control
2  COc1ccc(-n2c(=O)c(N=Nc3ccccc3)c(O)n(-c3ccc(C)cc3)c2=S)cc1            T/C  100 % of control
3  CC(C)(C)c1cccc(S(=O)(=O)Oc2ccccc2[N+](=O)[O-])c1            T/C  118 % of control
4                      COc1ccc2cc(OC)ccc2c1            T/C  100 % of control

###

Test system: BDF1 mice, P388 leukemia ip, median survival T/C
EXPERIMENTAL PROTOCOL: NCI In Vivo Anticancer Drug Screen. Data for tumor model P388 Leukemia (intraperitoneal) in B6D2F1 (BDF1) mice
SETUP CONDITIONS: endpoint: median survival time; dose: 50.0 mg/kg/injection; schedule: Q01DX009 (ip); vehicle: water; higher = longer survival
Toxic doses and inconclusive results are not listed.
Measured T/C, listed per entry.
ASSAY READOUT: T/C

> print(dat)
                                    molecule                       experimental.system    recorded.value
 1  O=[N+]([O-])c1ccc(Oc2ccc(C3N(c4ccccc4)CCN3c3ccccc3)cc2)c([N+](=O)[O-])c1  BDF1 mice, P388 leukemia ip, median survival T/C   99 % of control
 2                    CC(=O)n1ncc2ccc(N)cc21  BDF1 mice, P388 leukemia ip, median survival T/C   96 % of control
 3         CC(C)(Br)C(=O)c1ccc(-c2ccccc2)cc1  BDF1 mice, P388 leukemia ip, median survival T/C  117 % of control
 4                         CCOc1nc(SCC)ncc1C  BDF1 mice, P388 leukemia ip, median survival T/C  109 % of control
 5  CCN(CC)CCCC(C)NC(=O)c1cc(=O)[nH]c(=O)[nH]1 (configuration not stated)  BDF1 mice, P388 leukemia ip, median survival T/C  106 % of control
 6               Cc1[nH]c(=O)[nH]c(=O)c1NCCO  BDF1 mice, P388 leukemia ip, median survival T/C  102 % of control
 7  CN=C(N)Nc1ccc(C(=O)Oc2ccc([N+](=O)[O-])cc2)cc1  BDF1 mice, P388 leukemia ip, median survival T/C   87 % of control
 8                 c1ccc(Cn2ccnc2C2OCCO2)cc1  BDF1 mice, P388 leukemia ip, median survival T/C  112 % of control
 9  O=C(O)C1CC[N-]CC1.O=C(O)C1CC[N-]CC1.[NH2-].[NH2-].[Pt+4]  BDF1 mice, P388 leukemia ip, median survival T/C   96 % of control
10           CC[N+](CC)(CC)CCC[N+](CC)(CC)CC  BDF1 mice, P388 leukemia ip, median survival T/C   89 % of control
11  COc1ccc(CN(C)CCN(C)CCN(C)Cc2ccc(OC)cc2)cc1  BDF1 mice, P388 leukemia ip, median survival T/C  106 % of control
12                               Cn1cnccc1=O  BDF1 mice, P388 leukemia ip, median survival T/C  122 % of control

###

Test system: BDF1 mice, P388 leukemia ip, median survival T/C
EXPERIMENTAL PROTOCOL: NCI In Vivo Anticancer Drug Screen. Data for tumor model P388 Leukemia (intraperitoneal) in B6D2F1 (BDF1) mice
SETUP CONDITIONS: endpoint: median survival time; dose: 100.0 mg/kg/injection; schedule: Q01DX009 (ip); vehicle: saline; higher = longer survival
Inconclusive results and toxic doses are left out.
ASSAY READOUT: T/C

> print(dat)
                                    molecule  assay.readout    recorded.value
 1                  CCOC(=O)c1cnc(C)[nH]c1=O            T/C  100 % of control
 2           COC1CCCCC1Br (stereo not given)            T/C  113 % of control
 3                               CSc1ncncc1N            T/C  105 % of control
 4                      c1ccc(CSC2=NCCS2)cc1            T/C  113 % of control
 5  CCCCCC(CN(C)C)C(O)/C=C\c1ccccc1 (stereo not given)            T/C   99 % of control
 6              COc1cc(C(=O)N(C)C)cc(OC)c1OC            T/C   98 % of control
 7                               Cc1cc(N)on1            T/C  100 % of control
 8       NCC(O)CSc1ccccc1 (stereo not given)            T/C  106 % of control
 9                       Nc1cc(I)c2cccnc2c1O            T/C  124 % of control
10  C1=CC2CCC(C1)C21OCCO1 (stereo not given)            T/C   90 % of control
11  CC1(C)N=C(N)N=C(N)N1c1ccc(OCC(=O)N2CCOCC2)c(Cl)c1            T/C  103 % of control
12                 CNc1nc2ncn(C)c2c(=O)[nH]1            T/C  100 % of control
13  COc1ccc(/C=C/C2(O)N(C)C(=O)N(C)C(=O)N2C)cc1            T/C   99 % of control
14  CC(=O)OC1C=COC(C)C1OC(C)=O (stereo not given)            T/C  114 % of control
15         O=C(O)CNC(CSCc1ccccc1)CSCc1ccccc1            T/C  112 % of control

###

Test system: BDF1 mice, P388 leukemia ip, median survival T/C
EXPERIMENTAL PROTOCOL: NCI In Vivo Anticancer Drug Screen. Data for tumor model P388 Leukemia (intraperitoneal) in B6D2F1 (BDF1) mice
SETUP CONDITIONS: endpoint: median survival time; dose: 200.0 mg/kg/injection; schedule: Q01DX009 (ip); vehicle: saline with Tween-80; higher = longer survival
Inconclusive results and toxic doses are left out.
Measured T/C, listed per entry.
ASSAY READOUT: T/C

> print(dat)
                                   compound    recorded.value
1               CCCCCCCCCCSc1ncnc2nc[nH]c12  108 % of control
2                    O=CN(c1ccccc1)c1ccccc1  100 % of control
3    CC(C)(C)C(=O)CC(O)(C(F)(F)Cl)C(F)(F)Cl  100 % of control
4  CC(C)C1NC(=O)C2CCCN2C1=O (stereo not given)  100 % of control
5                       O=C(c1cccs1)c1cccs1   92 % of control

###

Test system: BDF1 mice, P388 leukemia ip, median survival T/C
EXPERIMENTAL PROTOCOL: NCI In Vivo Anticancer Drug Screen. Data for tumor model P388 Leukemia (intraperitoneal) in B6D2F1 (BDF1) mice
SETUP CONDITIONS: endpoint: median survival time; dose: 200.0 mg/kg/injection; schedule: Q01DX009 (ip); vehicle: saline with Tween-80; higher = longer survival
Inconclusive results and toxic doses are left out.
Measured T/C, listed per entry.

COMPOUND	EXPERIMENTAL SYSTEM	T/C
COC1/C=C/OC2(C)Oc3c(C)c(O)c4c(O)c(c(/C=N/NC5CCCCCCCCCCCCCC5)c(O)c4c3C2=O)NC(=O)/C(C)=C\C=C\C(C)C(O)C(C)C(O)C(C)C(OC(C)=O)C1C (stereo not given)	BDF1 mice, P388 leukemia ip, median survival T/C	95 % of control
O=C1OC(c2ccccc2)=C/C1=C/c1ccc([N+](=O)[O-])cc1	BDF1 mice, P388 leukemia ip, median survival T/C	92 % of control
O=S(=O)(Nc1ccccn1)c1ccc(N(CCCl)CCCl)cc1	BDF1 mice, P388 leukemia ip, median survival T/C	90 % of control
Cc1ccc(C(=O)O)cc1S(=O)(=O)Cl	BDF1 mice, P388 leukemia ip, median survival T/C	95 % of control
Cc1c(C#N)c2nc(C(=O)c3ccc(Br)cc3)cc(-c3ccc(Br)cc3)n2c1C	BDF1 mice, P388 leukemia ip, median survival T/C	109 % of control
